Tested on: a strand of SEQ ID NO:1
assay-text: Specific hybridization of LDLR adaptin domain-encoding polynucleotides under stringent conditions
Assay type: binding, human
Set-up: key: +: hybridize with a strand of SEQ ID NO:1 under Conditions I and/or II
measurement-parameters: CC domain encoding polynucleotides; Conditions I and/or II
measurement-type: Hybridization

SEQ ID NO:1, nucleotides 742-770: LDLR adaptin CC domain encoding polynucleotide (DNA GTCTGGGAGCTGGATGATGGCCTGGATGA; chemistry not given here) :: +
SEQ ID NO:1, nucleotides 799-824: LDLR adaptin CC domain encoding polynucleotide (DNA ACAAACCCTCAGGTCCTGGACACTGG; chemistry not given here) :: +
SEQ ID NO:1, nucleotides 784-809: LDLR adaptin CC domain encoding polynucleotide (DNA CTTGCCCAGTCTCGGACAAACCCTCA; chemistry not given here) :: +
SEQ ID NO:1, nucleotides 801-828: LDLR adaptin CC domain encoding polynucleotide (DNA AAACCCTCAGGTCCTGGACACTGGCCTG; chemistry not given here) :: +

Turning now to a further record.
// query Hybridization value for entry SEQ ID NO:1, nucleotides 775-789: LDLR adaptin CC domain encoding polynucleotide (DNA TTTTCGAGGCTTGCC; chemistry not given here)
// result +

Origin of measurements: patent US6465196B1
